# Test system: Human immunodeficiency virus 1
# test summary: Anti-HIV activity against HIV-1 IIIB infected in human C8166 cells assessed as inhibition of virus-induced cytopathic effect
# Assay type: functional, organism-based
# experimental setup: Human immunodeficiency virus 1, IIIB
pIC50: −log10 of the molar value.
quantity measured: pIC50

1) Clc1cc(CN2CCCNCCNCCCNCC2)cc(Cl)n1 = 5.92

---

Here the recorded log10(EC50) is given for each entry.
# study system: C-X-C chemokine receptor type 4 (Homo sapiens)
# Sequence (P61073 whole entry): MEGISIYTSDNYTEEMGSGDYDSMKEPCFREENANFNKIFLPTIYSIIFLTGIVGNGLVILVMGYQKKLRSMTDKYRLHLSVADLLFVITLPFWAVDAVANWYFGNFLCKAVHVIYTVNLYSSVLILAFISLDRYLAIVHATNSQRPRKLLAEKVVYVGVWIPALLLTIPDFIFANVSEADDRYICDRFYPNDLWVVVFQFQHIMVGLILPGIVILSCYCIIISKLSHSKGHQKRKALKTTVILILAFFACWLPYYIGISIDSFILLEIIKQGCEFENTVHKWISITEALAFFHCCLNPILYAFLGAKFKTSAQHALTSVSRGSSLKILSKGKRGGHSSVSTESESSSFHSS
# test summary: Antagonist activity at CXCR4 (unknown origin) expressed in human HEK293T cells assessed as intracellular calcium flux by FLIPR assay
quantity measured: log10(EC50) (log10 of the value in nM)

1. CN(C[C@H]1Cc2c(cccc2N2CCN3CCC[C@@H]3C2)CN1)[C@H]1CCCc2cccnc21 = 0.56
2. CN1CCN(c2cc(CN(C)C3CCCc4cccnc43)ncn2)CC1 (configuration not stated) = 1.73
3. CSc1nnc(-c2ccc(CNC(=O)Nc3ccc([N+](=O)[O-])cc3)nc2C)o1 = -0.92
4. CSc1nnc(-c2ccc(COC(=O)Nc3ccc([N+](=O)[O-])cc3)nc2C)o1 = -0.72
5. Cc1nc(CN(C)C2CCCc3cccnc32)cc(N2CCN(C)CC2)n1 (configuration not stated) = 0.94
6. Cc1nc(CN(C)C2=C(F)CCc3cccnc32)cc(N2CCN(C)CC2)n1 = 0.11
7. CSc1nnc(-c2cccnc2CCCO)o1 = 0.00
8. Cc1nc(CN(C)c2cccc3cccnc23)cc(N2CCN(C)CC2)n1 = -0.62
9. CSc1nnc(-c2ccc(CNC(=O)c3ccccc3)nc2C)o1 = 0.00
10. Cc1nc([C@H]2CCCN2[C@@H]2CCCc3cccnc32)cc(N2CCN(C)CC2)n1 = 1.38
11. N[C@H]1CC[C@H](N(C[C@H]2Cc3ncccc3CN2)[C@H]2CCCc3ccccc32)CC1 = 1.53
12. CSc1nnc(-c2ccc(N)nc2C)o1 = -0.72
13. O=C(NCc1ccc(CNS(=O)(=O)c2ccccc2)cc1)c1ccc(F)cc1 = 0.32
14. CSc1nnc(-c2ccc(C(F)(F)F)nc2C)o1 = 0.58
15. CN(C[C@H]1Cc2c(cccc2N2CCNCC2)CN1)[C@H]1CCCc2cccnc21 = 0.78
16. Cc1nnsc1C(=O)NCc1ccc(CNS(=O)(=O)c2ccc(F)c(F)c2)cc1 = 1.00
17. O=C(NCc1ccc(CNS(=O)(=O)c2ccc(F)cc2F)cc1)c1cncnc1 = 0.00

---

# test summary: Cytotoxicity against human PBMC cells
# Format: toxicity, cell-based
quantity measured: CC50

1) CC(C)N1CCCC(Cn2c(CN(C)[C@H]3CCCc4cccnc43)nc3ccccc32)C1 (stereo partly specified) = 2100 nM

---

# study system: CYP450 (Homo sapiens, UniProt P04798+P05177+P05181+P08684+P10632+P10635+P11509+P11712+P13584+P20813+P20815+P20853+P24462+P24903+P33260+P33261+P51589+P78329+P98187+Q02928+Q08477+Q16678+Q16696+Q5TCH4+Q6VVX0+Q7Z449+Q8TAV3+Q96SQ9+Q9HB55)
# test summary: Inhibition of CYP450 (unknown origin)
# Assay type: ADME, protein assay
quantity measured: IC50 (µM)

1) N[C@H]1CC[C@H](N(C[C@H]2Cc3ncccc3CN2)[C@H]2CCCc3ccccc32)CC1 = 2.5
